Tested system: Tyrosine-protein kinase JAK1 (Homo sapiens, UniProt P23458)
Sequence (P23458 whole entry): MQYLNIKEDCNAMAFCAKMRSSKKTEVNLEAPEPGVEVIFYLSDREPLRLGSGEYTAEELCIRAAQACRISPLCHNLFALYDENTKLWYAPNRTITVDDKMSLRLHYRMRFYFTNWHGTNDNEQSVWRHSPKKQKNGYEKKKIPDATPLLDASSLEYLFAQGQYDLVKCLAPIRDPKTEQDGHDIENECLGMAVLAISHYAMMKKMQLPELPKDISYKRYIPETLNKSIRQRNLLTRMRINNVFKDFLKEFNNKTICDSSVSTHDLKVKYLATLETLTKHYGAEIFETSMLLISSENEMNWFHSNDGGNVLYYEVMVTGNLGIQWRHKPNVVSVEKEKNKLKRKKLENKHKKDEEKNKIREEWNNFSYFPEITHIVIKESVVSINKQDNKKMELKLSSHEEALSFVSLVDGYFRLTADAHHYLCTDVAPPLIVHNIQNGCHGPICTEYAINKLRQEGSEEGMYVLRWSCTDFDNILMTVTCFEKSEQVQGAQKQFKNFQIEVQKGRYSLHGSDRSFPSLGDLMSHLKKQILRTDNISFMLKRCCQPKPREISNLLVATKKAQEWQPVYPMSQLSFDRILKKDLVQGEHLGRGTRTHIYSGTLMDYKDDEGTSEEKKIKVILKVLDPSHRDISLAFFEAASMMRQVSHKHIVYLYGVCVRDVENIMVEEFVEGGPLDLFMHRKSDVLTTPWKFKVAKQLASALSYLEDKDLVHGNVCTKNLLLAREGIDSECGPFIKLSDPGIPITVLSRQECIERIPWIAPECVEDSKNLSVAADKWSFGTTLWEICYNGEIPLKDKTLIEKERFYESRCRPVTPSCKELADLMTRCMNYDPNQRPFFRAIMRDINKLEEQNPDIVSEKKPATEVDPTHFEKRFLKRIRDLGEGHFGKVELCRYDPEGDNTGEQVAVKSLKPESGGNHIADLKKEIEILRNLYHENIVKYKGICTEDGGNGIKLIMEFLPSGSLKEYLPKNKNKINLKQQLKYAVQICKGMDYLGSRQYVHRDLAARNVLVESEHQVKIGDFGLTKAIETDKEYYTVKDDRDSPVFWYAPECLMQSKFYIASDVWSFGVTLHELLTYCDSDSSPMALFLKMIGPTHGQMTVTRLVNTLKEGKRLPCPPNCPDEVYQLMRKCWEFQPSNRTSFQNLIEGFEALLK
Assay summary: JAK Caliper Enzyme Assay at 1 mM ATP: Compounds were added to a 384-well plate. Reaction mixtures contained 10 mM HEPES, pH 7.4, 10 mM MgCl2, 0.01% BSA, 0.0005% Tween 20, 1 mM ATP and 1 μM peptide substrate. The JAK1 and TYK2 assays contained 1 μM of the IRStide peptide (5FAM-[…]) and the JAK2 and JAK3 assays contained 1 μM of the JAKtide peptide (FITC-[…]). The assays were initiated by the addition of 20 nM JAK1, 1 nM JAK2, 1 nM JAK or 1 nM TYK2 enzyme and were incubated at room temperature for three hours for JAK1, 60 minutes for JAK2, 75 minutes for JAK3 or 135 minutes for TYK2. Enzyme concentrations and incubation times were optimized for each new enzyme preps and were modified slightly over time to ensure 20% to 30% phosphorylation. The assays were stopped with 15 μL of 180 mM HEPES, pH 7.4, 20 mM EDTA, and 0.2% Coating Reagent 3. The assay plates were placed on a Caliper Life Science LC3000 instrument, and each well was sampled using appropriate separation conditions to measure the unphosphorylated and phosphorylated peptide.
Attribute measured: IC50 (nM)
Reply numerically in nM, unit not repeated.

// IC50 lookup, compound = `Cn1cc(-c2cn3nccc3c(-c3cnn([C@]4(CC#N)C[C@@H](CC#N)C4)c3)n2)cn1` , result: 764

---

Tested system: UniProt:P29597
Sequence (P29597 whole entry): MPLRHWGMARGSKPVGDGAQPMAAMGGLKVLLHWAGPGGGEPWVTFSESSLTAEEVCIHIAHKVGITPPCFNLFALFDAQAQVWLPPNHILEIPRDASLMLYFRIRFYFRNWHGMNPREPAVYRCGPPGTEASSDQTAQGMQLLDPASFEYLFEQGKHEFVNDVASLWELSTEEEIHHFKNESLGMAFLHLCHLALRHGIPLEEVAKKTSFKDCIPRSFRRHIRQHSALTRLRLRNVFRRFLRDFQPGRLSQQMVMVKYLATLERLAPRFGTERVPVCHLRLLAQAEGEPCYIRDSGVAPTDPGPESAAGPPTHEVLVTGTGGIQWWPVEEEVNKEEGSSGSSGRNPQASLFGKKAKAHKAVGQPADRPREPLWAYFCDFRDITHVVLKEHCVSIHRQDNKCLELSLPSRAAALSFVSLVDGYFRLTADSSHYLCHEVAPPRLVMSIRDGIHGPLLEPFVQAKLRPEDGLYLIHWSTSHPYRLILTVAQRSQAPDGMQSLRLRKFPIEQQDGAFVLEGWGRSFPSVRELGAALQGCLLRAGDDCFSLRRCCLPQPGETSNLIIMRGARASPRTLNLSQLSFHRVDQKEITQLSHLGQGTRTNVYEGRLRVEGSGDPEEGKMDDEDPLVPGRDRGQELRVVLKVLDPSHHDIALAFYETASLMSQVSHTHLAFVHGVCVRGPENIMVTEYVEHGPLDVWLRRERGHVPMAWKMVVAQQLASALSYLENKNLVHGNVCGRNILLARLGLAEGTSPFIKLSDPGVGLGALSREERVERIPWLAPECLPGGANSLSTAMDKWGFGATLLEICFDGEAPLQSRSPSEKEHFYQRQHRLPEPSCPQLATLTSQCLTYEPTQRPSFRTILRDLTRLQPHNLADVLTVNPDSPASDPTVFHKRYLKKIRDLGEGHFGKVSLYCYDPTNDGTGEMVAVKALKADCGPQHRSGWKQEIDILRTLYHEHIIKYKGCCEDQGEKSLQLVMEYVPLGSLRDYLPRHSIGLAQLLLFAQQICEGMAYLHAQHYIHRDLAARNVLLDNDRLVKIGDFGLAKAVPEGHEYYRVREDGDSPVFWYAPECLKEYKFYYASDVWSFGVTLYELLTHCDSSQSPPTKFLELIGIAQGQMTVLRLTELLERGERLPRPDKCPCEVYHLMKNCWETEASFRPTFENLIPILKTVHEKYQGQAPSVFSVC
Assay summary: JAK Caliper Enzyme Assay at 1 mM ATP: Compounds were added to a 384-well plate. Reaction mixtures contained 10 mM HEPES, pH 7.4, 10 mM MgCl2, 0.01% BSA, 0.0005% Tween 20, 1 mM ATP and 1 μM peptide substrate. The JAK1 and TYK2 assays contained 1 μM of the IRStide peptide (5FAM-[…]) and the JAK2 and JAK3 assays contained 1 μM of the JAKtide peptide (FITC-[…]). The assays were initiated by the addition of 20 nM JAK1, 1 nM JAK2, 1 nM JAK or 1 nM TYK2 enzyme and were incubated at room temperature for three hours for JAK1, 60 minutes for JAK2, 75 minutes for JAK3 or 135 minutes for TYK2. Enzyme concentrations and incubation times were optimized for each new enzyme preps and were modified slightly over time to ensure 20% to 30% phosphorylation. The assays were stopped with 15 μL of 180 mM HEPES, pH 7.4, 20 mM EDTA, and 0.2% Coating Reagent 3. The assay plates were placed on a Caliper Life Science LC3000 instrument, and each well was sampled using appropriate separation conditions to measure the unphosphorylated and phosphorylated peptide.
Attribute measured: IC50 (µM)
Report as a plain number; the unit µM is understood.

For record `Cn1cc(-c2cn3nccc3c(-c3cnn([C@]4(CC#N)C[C@@H](CC#N)C4)c3)n2)cn1` the listed IC50 is 0.024
